This collection of values is drawn from patent EP4800013A1.

# tested system: PARG (Homo sapiens, UniProt Q86W56)
# Construct: made in house
# Sequence (Q86W56 whole entry): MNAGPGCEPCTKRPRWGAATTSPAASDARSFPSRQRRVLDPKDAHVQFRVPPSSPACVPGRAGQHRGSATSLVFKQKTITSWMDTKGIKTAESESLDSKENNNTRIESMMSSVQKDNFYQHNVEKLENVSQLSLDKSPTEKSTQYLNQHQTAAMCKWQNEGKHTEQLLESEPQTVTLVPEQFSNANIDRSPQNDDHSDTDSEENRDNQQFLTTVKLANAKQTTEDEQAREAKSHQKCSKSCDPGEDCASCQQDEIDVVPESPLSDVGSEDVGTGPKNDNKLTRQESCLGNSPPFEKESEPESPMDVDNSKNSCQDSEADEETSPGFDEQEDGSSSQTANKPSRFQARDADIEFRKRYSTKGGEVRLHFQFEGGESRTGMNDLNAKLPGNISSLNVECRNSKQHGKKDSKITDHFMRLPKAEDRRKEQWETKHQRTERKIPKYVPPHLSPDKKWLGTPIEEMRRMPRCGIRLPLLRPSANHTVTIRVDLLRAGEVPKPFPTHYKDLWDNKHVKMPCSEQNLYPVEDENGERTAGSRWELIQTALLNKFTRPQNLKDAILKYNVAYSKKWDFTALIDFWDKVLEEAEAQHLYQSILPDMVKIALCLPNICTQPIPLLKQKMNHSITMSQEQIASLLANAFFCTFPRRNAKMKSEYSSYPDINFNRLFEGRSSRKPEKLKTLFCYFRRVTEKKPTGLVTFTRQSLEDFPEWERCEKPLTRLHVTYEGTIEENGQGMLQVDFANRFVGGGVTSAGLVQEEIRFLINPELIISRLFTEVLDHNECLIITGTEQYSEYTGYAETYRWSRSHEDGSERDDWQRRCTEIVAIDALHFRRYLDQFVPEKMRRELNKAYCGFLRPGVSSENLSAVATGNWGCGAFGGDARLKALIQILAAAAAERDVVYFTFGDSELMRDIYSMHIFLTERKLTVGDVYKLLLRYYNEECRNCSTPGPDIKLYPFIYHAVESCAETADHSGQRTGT
# assay details: Enzymatic inhibitory activity against PARG, HTRF assay
# Type: biochemical
# study conditions: HTRF; PARylated PARP1 protein as substrate; 60 minutes at room temperature; read-out: IC50 against PARG enzyme
In this section, each of the compounds is paired with its reported IC50.
Respond numerically; units are nM and should not be typed.

Completed entries (count: 2):
- compound: "C[C@H]1CN(c2cc(S(=O)(=O)NC3(C)CC3)cc3c2nc(C2COCCO2)n3-c2nnc(C(F)F)s2)C[C@H](C)N1 (stereo partly drawn) [Compound 077N]"
  tested system: "PARG (Homo sapiens, UniProt Q86W56)"
  result unit: "nM"
  observed: 3.4
- compound: "C[C@H]1CN(c2cc(S(=O)(=O)NC3(C)CC3)cc3c2n2nc(C(F)F)nc2n3-c2nnc(C(F)F)s2)C[C@H](C)N1 [Compound 065S]"
  tested system: "PARG (Homo sapiens, UniProt Q86W56)"
  result unit: "nM"
  observed: 1.4

Below: the item to evaluate.
Q: Data request, read-out IC50, for CC(C)C(=O)N1CC=C(c2cc(S(=O)(=O)NC3(C#N)CC3)cc3c2ncn3-c2nnc(C(F)F)s2)CC1 [Compound B023]
Result: 16.7

====

Here the recorded IC50 is given for each entry.
# tested system: PARG (Homo sapiens, UniProt Q86W56)
# Construct: made in house
# assay details: Enzymatic inhibitory activity against PARG, HTRF assay
# Format: biochemical
# study conditions: HTRF; PARylated PARP1 protein as substrate; 60 minutes at room temperature; read-out: IC50 against PARG enzyme
Report the value in nM with no unit label.

Some molecules with known IC50 results, for comparison:
- molecule: "CN(C)C(=O)N1CC=C(c2cc(S(=O)(=O)NC3(C#N)CC3)cc3c2ncn3-c2nnc(C(F)F)s2)CC1"
  observed: 18.7
- molecule: "C[C@H]1CN(c2cc(S(=O)(=O)NC3(C)CC3)cc3c2nc(C2CCCCO2)n3-c2nnc(C(F)F)s2)C[C@H](C)N1 (stereo partly drawn) [Compound 077X]"
  observed: 21.3

Let's switch to this molecule now.
Q: For the molecule C=CCn1c(=O)n(-c2nnc(C(F)F)s2)c2cc(S(=O)(=O)NC3(C#N)CC3)cc(N3CCN([S+]([O-])C(C)C)CC3)c21 (stereo not drawn) [Compound 074M] , what IC50 is on record?
Result: 6.2

====

# pIC50 values compiled below
# tested system: PARG (Homo sapiens, UniProt Q86W56)
# Construct: made in house
# assay details: Enzymatic inhibitory activity against PARG, HTRF assay
# Format: biochemical
# study conditions: HTRF; PARylated PARP1 protein as substrate; 60 minutes at room temperature; read-out: IC50 against PARG enzyme
# Protocol: In this experiment, the enzymatic inhibitory activity of the compounds of the present disclosure against PARG was determined using an HTRF (homogeneous time-resolved fluorescence) assay. HTRF assay reagents were purchased from PerkinElmer (Cat. Nos. 61HISTLB and 610SAXLB). The purified protein was prepared in-house. PARG enzyme reaction buffer: 50 mM Tris (pH 7.4), 0.1 mg/mL BSA, 3 mM EDTA, 0.4 mM EGTA, 1 mM DTT, 50 mM KCl, and 0.01% Tween 20. […]
pIC50 (log units): -log10 of the concentration in mol/L.

Use the examples below as a reference point.
- compound: "C=CCn1c(=O)n(-c2nnc(C(F)F)s2)c2cc(S(=O)(=O)NC3(C#N)CC3)cc(N3CCN(C(=O)N4CCC4)CC3)c21 [Compound 067B]"
  observed: 8.16
- compound: "C=CCn1c(=O)n(-c2nnc(C(F)F)s2)c2cc(S(=O)(=O)NC3(C#N)CC3)cc(N3CCN(C(=O)C4(O)CCC4)CC3)c21 [Compound 073B]"
  observed: 8.35
- compound: "CC(C)c1nc2n(-c3nnc(C(F)F)s3)c3cc(S(=O)(=O)NC4(C)CC4)cc(N4C[C@H](C)N[C@@H](C)C4)c3n2n1 [Compound 065Y]"
  observed: 9.10
- compound: "CC(C)C(=O)N1CCN(c2cc(S(=O)(=O)NC3(C#N)CC3)cc3c2nc(OC2CC2)n3-c2nnc(C(F)F)s2)CC1 [Compound 057Q]"
  observed: 8.29
- compound: "C[C@H]1CN(c2cc(S(=O)(=O)NC3(C)CC3)cn3c(-c4nnc(C(F)F)s4)cnc23)C[C@H](C)N1 [Compound 080J]"
  observed: 8.62

Pending compound:
Q: # input compound: C=CCn1c(=O)n(-c2nnc(C(F)F)s2)c2cc(S(=O)(=O)NC3(C#N)CC3)cc(N3CCN(C(=O)N4CCOCC4)CC3)c21 [Compound 067G] ; wanted: its pIC50
Result: 8.06
